All values here come from patent US10363239B2.

For each of the compounds below, state its MOR agonist activity ([35S]GTPγS binding), FLNA-Binding Compound as Agonist 1 μM + BFNA.
# Test system: mu opiate receptor (MOR)
# PROTOCOL_DESCRIPTION: MOR agonist activity using [35S]GTPγS binding assay in striatal membranes
# Assay type: biochemical
# CONDITION_SUMMARY: 1 μM compound + 1 μM β-funaltrexamine
Report field: quantity (unit follows the number).

Answered cases to consult:
CC1CN(CC(O)COc2ccc(Cl)cc2)CC(C)O1 (centres unmarked) = 116.5%
CC1CN(CC(O)COC2CCCCC2)CC(C)O1 (centres unmarked) = 65.2%
CC1CCN(CC(O)COC2CC(C)CCC2C(C)C)CC1 (centres unmarked) = 18.2%

I'm hoping you can list MOR agonist activity ([35S]GTPγS binding), FLNA-Binding Compound as Agonist 1 μM + BFNA for every compound here, please.
1. CC1CCC(C(C)C)C(OCC(O)CN2CCCC2)C1 (centres unmarked)
2. CC1CCC(C(C)C)C(OCC(O)CN2CC(C)OC(C)C2)C1 (centres unmarked) [Compound A0032-1]

Result:
22.2%
224.5%

---

So I've got a bunch of compounds here, and I need their % DAMGO (0.1 μM) values.
# Tested on: mu opiate receptor (MOR)
# PROTOCOL_DESCRIPTION: MOR agonist activity using [35S]GTPγS binding assay in striatal membranes
# Type: biochemical
# CONDITION_SUMMARY: 0.1 μM compound relative to DAMGO
# Experimental: To assess the mu opiate receptor (MOR) agonist activity of positive compounds from the FLNA screening, compounds were tested in a [^35S]GTPγS binding assay using striatal membranes. […] The immunocomplexes so formed were collected by incubation at 25° C. for 30 minutes with 40 μl of agarose-conjugated protein A/G beads and centrifugation at 5,000×g at 4° C. for 5 minutes. […] The radioactivity in the suspension was determined by liquid scintillation spectrometry.
Answers are plain numbers, in %.

CC1CCC(C(C)C)C(OCC(O)CN2CC(C)OC(C)C2)C1 (centres unmarked) [Compound A3333] = 88.9
CN(C)c1cccc(OCC(O)CN2CCc3ccccc3C2)c1 (centres unmarked) = 77.0
CC1CN(CC(O)COc2ccccc2Br)CC(C)O1 (centres unmarked) = 93.4
CC1CCC(C(C)C)C(OCC(O)CN2CCCCC2)C1 (centres unmarked) = 105.0
CC1CCC(C(C)C)C(OCC(O)CN2CCSC2)C1 (centres unmarked) = 104.1
CC1CCC(C(C)C)C(OCC(O)CN2CCN(CCCN3CCOCC3)CC2)C1 (centres unmarked) = 79.7
COc1c2c(cc3c1OCO3)CCN(CC(O)COC1CC(C)CCC1C(C)C)C2 (centres unmarked) = 70.7
Cc1cccc(OCC(O)CN2CC(C)OC(C)C2)c1 (centres unmarked) = 75.5
CC1CCC(C(C)C)C(OCC(O)CN2CC(C)CC(C)C2)C1 (centres unmarked) = 109.6
CC1CCC(C(C)C)C(OCC(O)CN2CCSCC2)C1 (centres unmarked) = 118.3

Give measured % DAMGO (0.1 μM) for every item shown.
1. CC1CCC(C(C)C)C(OCC(O)CN2CCCc3ccccc32)C1 (centres unmarked)
2. CC1CN(CC(O)COc2cccc(F)c2)CC(C)O1 (centres unmarked)
3. CC1CCC(C(C)C)C(OCC(O)CN2CCc3ccccc3C2)C1 (centres unmarked)
4. CC1CCC(C(C)C)C(OCC(O)CN2CCN(CCc3ccccc3)CC2)C1 (centres unmarked)

Result:
1. 36.8
2. 118.4
3. 23.5
4. 100.9

Go through the list and state % DAMGO (0.1 μM) for each entry.
1. CC1CCC(C(C)C)C(OCC(O)CN2CCOc3ccccc32)C1 (centres unmarked)
2. COc1ccc(OCC(O)CN2CC(C)OC(C)C2)cc1 (centres unmarked)
3. COc1ccc(OCC(O)CN2CCCc3ccccc32)cc1 (centres unmarked)
4. OC(COc1cccc(F)c1)CN1CCc2ccccc2C1 (centres unmarked)

Result:
88.3
119.1
99.2
53.2

Quick one: give me % DAMGO (0.1 μM) for each item below, same order please.
1. CC1CCC(C(C)C)C(OCC(O)Cn2cccc2)C1 (centres unmarked)
2. CC1CCC(C(C)C)C(OCC(O)CN2CCCCC2=O)C1 (centres unmarked)

Result:
1. 90.1
2. 73.4
